System: mHTT protein in GM04724 (CAG 70/20) Huntington's disease patient lymphoblast cells
TEST NAME: mHTT protein assay, 2B7-MW1 assay via Mesoscale Discovery (MSD)
Assay type: cell-based, human
MEASUREMENT CONDITIONS: GM04724 Huntington's disease patient lymphoblasts
This section presents compounds with their documented EC50 values.

Use the examples below as a reference point.
> print(dat)
                                   compound   measurement
1  CN(c1ccc(-c2ccc(-n3ccnc3)cc2O)nn1)[C@@H]1C[C@H]2CC(F)(F)[C@@H](C1)N2 [Compound 13A]   16 to 50 nM
2  CN(c1ccc(-c2cc3cccnc3cc2O)nn1)[C@@H]1C[C@H]2CC(F)(F)[C@@H](C1)N2 [Compound 45A]  51 to 100 nM

## Task Please report the recorded EC50 for CN(c1ccc(-c2ccc(C3=CCCC3)cc2O)nn1)[C@@H]1C[C@H]2CC[C@H](N2)[C@@H]1F [Compound 34A] .
## Result 101 to 500 nM

## Task Please report the recorded EC50 for CN(c1ccc(-c2ccc(-c3cnn(C(F)F)c3)cc2O)nn1)[C@H]1C[C@@H]2CC[C@@H](N2)[C@H]1F [Compound 20B] .
## Result 0.01 to 15 nM

## Task Please report the recorded EC50 for CN(c1ccc(-c2cc3nnccc3cc2O)nn1)[C@@H]1C[C@H]2CC[C@H](N2)[C@@H]1F [Compound 89A] .
## Result 101 to 500 nM

## Task Please report the recorded EC50 for CN(C)C(=O)c1cc2cc(O)c(-c3ccc(N(C)[C@@H]4C[C@H]5CC[C@H](N5)[C@@H]4F)nn3)cc2o1 [Compound 9A] .
## Result 51 to 100 nM

## Task Please report the recorded EC50 for Cc1cnc(-c2ccc(-c3ccc(N(C)[C@H]4C[C@@H]5CCC[C@@H](N5)[C@H]4F)nn3)c(O)c2)cn1 [Compound 26B] .
## Result 0.01 to 15 nM

###

This section presents compounds with their documented MDCK-MDR1: % Recov A-B values.
Tested on: MDR1-MDCK cell monolayers
MEASUREMENT CONDITIONS: dog, MDCK-MDR1, 120 min, 5 μM, pH 7.4
Kindly report the value followed by its unit.

COMPOUND	VALUE TYPE	MEASUREMENT
CN(c1ccc(-c2ccc(Oc3nccn3C)cc2O)nn1)[C@H]1C[C@@H]2CC[C@@H](N2)[C@H]1F (single isomer, unassigned) [Compound 123B]	MDCK-MDR1: % Recov A-B	92%
CN(c1ccc(-c2cc(C#N)c(F)cc2O)nn1)[C@@H]1C[C@H]2CC[C@H](N2)[C@@H]1F [Compound 72A]	MDCK-MDR1: % Recov A-B	88%

## Task Please report the recorded MDCK-MDR1: % Recov A-B for CN1[C@@H]2CC[C@H]1[C@H](F)[C@H](N(c1ccc(-c3cc4ncn(CC(F)(F)F)c(=O)c4cc3O)nn1)C1CC1)C2 (single isomer, unassigned) [Compound 111A] .
## Result 90%

###

This section presents compounds with their documented efflux ratio at 120 min, 5 μM values.
Test system: MDR1
TEST NAME: in vitro
MEASUREMENT CONDITIONS: dog, MDCK-MDR1, pH 7.4

COMPOUND	efflux ratio at 120 min, 5 μM
CN(c1ccc(-c2ccc(C3CC3)cc2O)nn1)[C@@H]1C[C@H]2CC[C@H](N2)[C@@H]1F (single isomer, unassigned) [Compound 31A]	4
CN(c1ccc(-c2ccc(-n3cnc(C(=O)NC(C)(C)C)c3)cc2O)nn1)[C@@H]1C[C@H]2CC[C@H](N2)[C@@H]1F (single isomer, unassigned) [Compound 124A]	133
Cc1nc2cc(-c3ccc(N(C)[C@H]4C[C@@H]5CC[C@H]([C@H]4F)N5C)nn3)c(O)cc2c(=O)n1CC(F)(F)F (single isomer, unassigned) [Compound 130B]	94

Let us examine a further case.
## Task Please report the recorded efflux ratio at 120 min, 5 μM for O=C(c1cc2cc(O)c(-c3ccc(N(C4CC4)[C@@H]4C[C@H]5CC[C@H](N5)[C@@H]4F)nn3)cc2o1)N1CCC1 [Compound 57A] .
## Result 80

###

Tested on: MDR1 (P-gp)
TEST NAME: Blood-brain-barrier (BBB) penetration potential via MDCK-MDR1 permeability assay
MEASUREMENT CONDITIONS: dog, MDCK-MDR1, pH 7.4, MDCK-MDR1: Papp B-A, B-A direction
VALUE TYPE: Papp B→A at 120 min, 5 μM (×10⁻⁶ cm/s)
State just the number; it will be interpreted in ×10⁻⁶ cm/s.

Use the examples below as a reference point.
> print(dat)
                                   compound  measurement
1  O=C(c1cc2cc(O)c(-c3ccc(N(C4CC4)[C@H]4C[C@@H]5CC[C@@H](N5)[C@H]4F)nn3)cc2o1)N1CCC1 [Compound 57B]         48.5
2  CN(c1ccc(-c2ccc(-c3cc[nH]n3)cc2O)nn1)[C@H]1C[C@@H]2CC[C@@H](N2)[C@H]1F (single isomer, unassigned) [Compound 33B]           53
3  Cc1cnc(-c2ccc(-c3ccc(N(C)[C@H]4C[C@@H]5CCC[C@@H](N5)[C@H]4F)nn3)c(O)c2)cn1 [Compound 26B]         45.1
4  CN(c1ccc(-c2ccc(-n3ccnn3)cc2O)nn1)[C@H]1C[C@@H]2CCC[C@@H](N2)[C@H]1F [Compound 62B]         59.8

## Task Please report the recorded Papp B→A at 120 min, 5 μM for CN(c1ccc(-c2cc(F)c(-c3ccoc(=O)c3)cc2O)nn1)[C@H]1C[C@@H]2CC[C@@H](N2)[C@H]1F [Compound 17B] .
## Result 36.8

## Task Please report the recorded Papp B→A at 120 min, 5 μM for CN(C)C(=O)c1cc2cc(O)c(-c3ccc(N(C)[C@H]4C[C@@H]5CC[C@@H](N5)[C@H]4F)nn3)cc2o1 .
## Result 48.2

###

Tested on: MDR1-MDCK cell monolayers
TEST NAME: Blood-brain-barrier (BBB) penetration potential via MDCK-MDR1 permeability assay
MEASUREMENT CONDITIONS: B-A direction
This section presents compounds with their documented MDCK-MDR1: % Recov B-A values.
State just the number; it will be interpreted in %.

Use the examples below as a reference point.
> print(dat)
                                   compound              value.type  measurement
1  CNC(=O)c1ccc(-c2ccc(N(C)[C@H]3C[C@@H]4CC[C@@H](N4)[C@H]3F)nn2)c(O)c1 (single isomer, unassigned) [Compound 77B]  MDCK-MDR1: % Recov B-A          106
2  CN(c1ccc(-c2ccc(C#N)cc2O)nn1)[C@H]1C[C@@H]2CCC[C@@H](N2)[C@H]1F [Compound 39B]  MDCK-MDR1: % Recov B-A           86
3  CN(c1ccc(-c2cc3cnccc3cc2O)nn1)[C@H]1C[C@@H]2CC[C@H]([C@H]1F)N2C [Compound 93B]  MDCK-MDR1: % Recov B-A           63

## Task Notebook entry, MDR1-MDCK cell monolayers assay: MDCK-MDR1: % Recov B-A of CN(c1ccc(-c2cc(F)c(-c3ccn(C)c(=O)c3)cc2O)nn1)[C@@H]1C[C@H]2CC(F)(F)[C@@H](C1)N2 [Compound 22A] = ?
## Result 94

###

System: mHTT protein in GM04724 (CAG 70/20) Huntington's disease patient lymphoblast cells
TEST NAME: mHTT protein assay, 2B7-MW1 assay via Mesoscale Discovery (MSD)
Format: cell-based, human
MEASUREMENT CONDITIONS: GM04724 Huntington's disease patient lymphoblasts
pEC50: −log10 of the molar value.
VALUE TYPE: pEC50

## Task Please report the recorded pEC50 for CN(c1ccc(-c2ccc(-c3cnn(C(F)F)c3)cc2O)nn1)[C@H]1C[C@@H]2CCC[C@@H](N2)[C@H]1F [Compound 21B] .
## Result 7.30 to 7.80

## Task Please report the recorded pEC50 for CN(c1ccc(-c2cc3nccnc3cc2O)nn1)[C@@H]1C[C@H]2CC[C@H](N2)[C@@H]1F [Compound 88A] .
## Result 7.00 to 7.29

## Task Please report the recorded pEC50 for CNC(=O)c1ccc(-c2ccc(N(C)[C@H]3C[C@@H]4CC[C@@H](N4)[C@H]3F)nn2)c(O)c1 (single isomer, unassigned) [Compound 77B] .
## Result 6.30 to 7.00

## Task Please report the recorded pEC50 for CN(c1ccc(-c2cc3cncnc3cc2O)nn1)[C@H]1C[C@@H]2CC[C@@H](N2)[C@H]1F [Compound 75B] .
## Result 7.00 to 7.29

## Task Please report the recorded pEC50 for Cc1cc(=O)c2cc(O)c(-c3ccc(N(C)[C@@H]4C[C@H]5CC[C@H](N5)[C@@H]4F)nn3)cc2o1 [Compound 49A] .
## Result 7.30 to 7.80

## Task Please report the recorded pEC50 for CN(c1ccc(-c2cc(C#N)ccc2O)nn1)[C@H]1C[C@@H]2CC[C@@H](N2)[C@H]1F (single isomer, unassigned) [Compound 70B] .
## Result 6.30 to 7.00

## Task Please report the recorded pEC50 for Cc1cnc(-c2ccc(-c3ccc(N(C)[C@@H]4C[C@H]5CCC[C@H](N5)[C@@H]4F)nn3)c(O)c2)cn1 [Compound 26A] .
## Result 6.30 to 7.00

## Task Please report the recorded pEC50 for CN(c1ccc(-c2ccc(-c3cnn(C(F)F)c3)cc2O)nn1)[C@@H]1C[C@H]2CCC[C@H](N2)[C@@H]1F [Compound 21A] .
## Result 7.30 to 7.80

## Task Please report the recorded pEC50 for CN(c1ccc(-c2cc(F)c(-c3ccn(C)c(=O)c3)cc2O)nn1)[C@H]1C[C@@H]2CC[C@@H](N2)[C@H]1F .
## Result 7.82 to 11.00

## Task Please report the recorded pEC50 for CN(c1ccc(-c2cc3ccn(C)c(=O)c3cc2O)nn1)[C@@H]1C[C@H]2CC[C@H](N2)[C@@H]1F [Compound 84A] .
## Result 7.82 to 11.00

From: patent US12509460B2
